Recorded MFI values for a group of binders are listed next.
biological target: T1, human LILRA3 (human, UniProt Q8N6C8 24-439); test: FACS, 293F-hLILRA3 cells
T1 construct: whole, on cells; also called hLILRA3
T1 sequence (Q8N6C8 24-439): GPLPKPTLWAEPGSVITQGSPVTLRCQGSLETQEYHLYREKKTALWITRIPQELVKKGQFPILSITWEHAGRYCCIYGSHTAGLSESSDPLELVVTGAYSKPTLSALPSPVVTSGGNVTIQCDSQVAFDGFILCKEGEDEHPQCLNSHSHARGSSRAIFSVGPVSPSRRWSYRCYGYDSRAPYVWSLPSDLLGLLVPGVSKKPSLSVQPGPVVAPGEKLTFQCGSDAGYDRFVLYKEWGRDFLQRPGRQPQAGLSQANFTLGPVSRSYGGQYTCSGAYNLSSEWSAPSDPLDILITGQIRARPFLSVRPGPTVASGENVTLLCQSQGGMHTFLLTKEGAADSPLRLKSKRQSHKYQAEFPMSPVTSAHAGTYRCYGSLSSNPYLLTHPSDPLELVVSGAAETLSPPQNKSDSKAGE
Only the number, expressed in MFI, is required.

INSERT INTO assay_data (binder, quantitative_result) VALUES
  ('27-F11-E10-G10 (antibody, V domains shown, mouse monoclonal hybridoma antibody) VH: EVQLVESGGGLVQPGGSRKLSCAASGFTFSSFGMHWVRQAPEKGLEWVAYISSGSSTIYYADTVKGRFSISRDNPKNTLFLQMTSLRSEDTAMFYCARSTGTGAMDYWGQGTSVTVSS VL: DIQMTQTTSSLSASLGDRVTISCRASQDISNYLNWYQQKPDGTVKLLIYYTSRLHSGVPSRFSGSGSGTDYSLTISNLEQEDIATYFCQQGNTLPWTFGGGTKLELK', 19.1),
  ('2-H1-D7-E5-D5 (antibody, V domains shown, mouse monoclonal hybridoma antibody) VH: EVHLVESGGGLVQPGGSRKLSCAASGFTFSSFGMHWVRQPPEKGLEWVAYISSGSSSIYYADTVKGRFTISRDNPKNTLFLQMTSLRSEDTAMYYCARGTGTGAMDYWGQGTSVTVSS VL: DIQMTQTTSSLSASLGDRVTISCRTSQDISNYLNWYQQKPDGTVKLLIYYTSKLHSGVPSRFSGSGSGTDYSLTISNLDQEDIATYFCQQGNTLPWTFGGGTKLEIK', 20),
  ('10-H9-E3-G3 (antibody, V domains shown, mouse monoclonal hybridoma antibody) VH: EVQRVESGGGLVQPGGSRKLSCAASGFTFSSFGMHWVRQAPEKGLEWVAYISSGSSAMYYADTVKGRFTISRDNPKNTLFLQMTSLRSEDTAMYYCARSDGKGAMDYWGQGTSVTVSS VL: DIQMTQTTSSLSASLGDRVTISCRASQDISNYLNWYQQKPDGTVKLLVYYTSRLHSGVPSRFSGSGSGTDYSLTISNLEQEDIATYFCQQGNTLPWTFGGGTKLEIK', 18.3),
  ('25-G9-G4-C12 (antibody, V domains shown, mouse monoclonal hybridoma antibody) VH: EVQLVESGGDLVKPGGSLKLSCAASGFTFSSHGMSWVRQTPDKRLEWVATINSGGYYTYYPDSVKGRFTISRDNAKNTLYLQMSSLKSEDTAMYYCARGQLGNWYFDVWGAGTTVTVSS VL: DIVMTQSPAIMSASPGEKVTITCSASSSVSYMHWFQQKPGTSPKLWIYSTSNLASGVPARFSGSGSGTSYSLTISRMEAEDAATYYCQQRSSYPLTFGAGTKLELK', 18.6),
  ('43-D12-F3-G11 (antibody, V domains shown, mouse monoclonal hybridoma antibody) VH: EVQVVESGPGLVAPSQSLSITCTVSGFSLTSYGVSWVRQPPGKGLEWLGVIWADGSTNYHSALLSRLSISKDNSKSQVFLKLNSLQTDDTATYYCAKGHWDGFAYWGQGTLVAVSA VL: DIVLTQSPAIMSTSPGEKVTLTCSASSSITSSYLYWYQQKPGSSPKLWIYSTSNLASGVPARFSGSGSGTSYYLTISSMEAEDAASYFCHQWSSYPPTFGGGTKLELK', 20.2);

Please find the next binder below.
Q: Please give the documented MFI of 42-C8-A12-F3-D11 (antibody, V domains shown, mouse monoclonal hybridoma antibody) VH: EVHLVESGGDLVKPGGSLKLSCAASGFTFSSHGMSWVRQTPDKRLEWVATISSGGIYTYHPDSVKGRFSISRDNAKKTLYLQMSSLKSEDTGIYYCTRGQVGNWYFDVWGAGTTVTVSS VL: DIVITQSPAIMSASPGEKVTINCSASSSVSYMHWFQQTPGTSPKLWIYSTSNLASGVPARFSGSGSGTFYSLTISRMEAEDAATYYCQQRSSYPLTFGAGTKLELK
Ans: 24.5
